- TEST TARGET: T1, R3 (RHAMM-R3) peptide/HLA-A*02:01 complex on T2 cells (human)
- T1 construct: Control target of the phage staining of T2 cells; also called T2 cells pulsed with R3 peptide; RHAMM 3 (R3)
- ASSAY INFO: flow cytometry, phage on T2 + R3 peptide (as the table names the samples); secondary only 109, unstained 80.9
VALUE KIND: Median:FITC-A
Just the number, please, no unit after it.

Output Median:FITC-A of EXT017-27 scFv phage clone (scFv, full-length scFv with His+HA tags; also called EXT017-27 phage; phage clone #27) scFv: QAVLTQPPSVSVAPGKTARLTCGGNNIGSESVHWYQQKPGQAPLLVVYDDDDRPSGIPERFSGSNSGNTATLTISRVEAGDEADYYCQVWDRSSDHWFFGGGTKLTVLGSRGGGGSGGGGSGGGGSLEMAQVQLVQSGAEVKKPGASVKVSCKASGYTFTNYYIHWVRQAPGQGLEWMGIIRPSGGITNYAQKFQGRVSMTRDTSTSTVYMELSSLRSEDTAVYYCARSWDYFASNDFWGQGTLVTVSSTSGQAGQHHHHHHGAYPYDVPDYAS 123
